- method: Cytotoxicity against rat CGN cells assessed as reduction in cell viability after 24 hrs by MTT assay
- Type: cell-based
measured metric: Activity

substance smiles: O=C1C(NCCNc2c3c(nc4ccccc24)CCCC3)=CC(=O)c2c(O)cccc21
Activity: Toxic
//
substance smiles: O=C1C(NCCCNc2c3c(nc4ccccc24)CCCC3)=CC(=O)c2c(O)cccc21
Activity: Toxic
//
substance smiles: COc1ccc2nc3c(c(NCCCNC4=CC(=O)c5c(O)cccc5C4=O)c2c1)CCCC3
Activity: Toxic
//
substance smiles: COc1ccc2nc3c(c(NCCNC4=CC(=O)c5ccccc5C4=O)c2c1)CCCC3
Activity: Toxic
//
substance smiles: COc1ccc2nc3c(c(NCCCNC4=C(Cl)C(=O)c5ccccc5C4=O)c2c1)CCCC3
Activity: Toxic
//
substance smiles: COc1ccc2nc3c(c(NCCNC4=CC(=O)c5c(O)cccc5C4=O)c2c1)CCCC3
Activity: Toxic
//
substance smiles: O=C1C(Cl)=C(NCCNc2c3c(nc4cc(Cl)ccc24)CCCC3)C(=O)c2ccccc21
Activity: Toxic
//
substance smiles: O=C1C=C(NCCNc2c3c(nc4ccccc24)CCCC3)C(=O)c2ccccc21
Activity: Toxic
//
substance smiles: O=C1C(Cl)=C(NCCCNc2c3c(nc4ccccc24)CCCC3)C(=O)c2ccccc21
Activity: Toxic
//
substance smiles: O=C1C(Cl)=C(NCCNc2c3c(nc4ccccc24)CCCC3)C(=O)c2ccccc21
Activity: Toxic

Okay, now this compound:
Incoming: Need Activity, item COc1ccc2nc3c(c(NCCCNC4=CC(=O)c5ccccc5C4=O)c2c1)CCCC3
Outgoing: Toxic

====

These records show pIC50 for Cholinesterase (Homo sapiens, UniProt P06276).
Interpret pIC50 as the negative base-10 log of the concentration measured in mol/L.

Incoming: Need pIC50, item O=C1C(Cl)=C(NCCNc2c3c(nc4ccccc24)CCCC3)C(=O)c2ccccc21
Outgoing: 7.02

Incoming: Further, for COc1ccc2nc3c(c(NCCCNC4=CC(=O)c5c(O)cccc5C4=O)c2c1)CCCC3 ?
Outgoing: 6.48

Incoming: Further, for O=C1C(NCCNc2c3c(nc4cc(Cl)ccc24)CCCC3)=CC(=O)c2c(O)cccc21 ?
Outgoing: 6.27

Incoming: Further, for COc1ccc2nc3c(c(NCCNC4=CC(=O)c5c(O)cccc5C4=O)c2c1)CCCC3 ?
Outgoing: 5.89

Incoming: Further, for COc1ccc2nc3c(c(NCCNC4=C(Cl)C(=O)c5ccccc5C4=O)c2c1)CCCC3 ?
Outgoing: 6.01

Incoming: Further, for O=C1C=C(NCCCNc2c3c(nc4ccccc24)CCCC3)C(=O)c2ccccc21 ?
Outgoing: 7.72

Incoming: Further, for O=C1C(Cl)=C(NCCNc2c3c(nc4cc(Cl)ccc24)CCCC3)C(=O)c2ccccc21 ?
Outgoing: 6.54

Incoming: Further, for O=C1C=C(NCCNc2c3c(nc4ccccc24)CCCC3)C(=O)c2ccccc21 ?
Outgoing: 8.26

Incoming: Further, for O=C1C(NCCCNc2c3c(nc4ccccc24)CCCC3)=CC(=O)c2c(O)cccc21 ?
Outgoing: 7.84

====

- method: Cytotoxicity against rat CGN cells assessed as reduction in cell viability after 24 hrs by MTT assay
- Type: cell-based
measured metric: Activity

Consider the worked cases shown below.
substance smiles: O=C1C(Cl)=C(NCCCNc2c3c(nc4cc(Cl)ccc24)CCCC3)C(=O)c2ccccc21
Activity: Toxic
--
substance smiles: O=C1C=C(NCCCNc2c3c(nc4ccccc24)CCCC3)C(=O)c2ccccc21
Activity: Toxic
--
substance smiles: O=C1C(NCCCNc2c3c(nc4cc(Cl)ccc24)CCCC3)=CC(=O)c2c(O)cccc21
Activity: Toxic
--
substance smiles: O=C1C=C(NCCCNc2c3c(nc4cc(Cl)ccc24)CCCC3)C(=O)c2ccccc21
Activity: Toxic
--
substance smiles: COc1ccc2nc3c(c(NCCNC4=C(Cl)C(=O)c5ccccc5C4=O)c2c1)CCCC3
Activity: Toxic
--
substance smiles: O=C1C(NCCNc2c3c(nc4cc(Cl)ccc24)CCCC3)=CC(=O)c2c(O)cccc21
Activity: Toxic

Okay, now this compound:
Incoming: Need Activity, item O=C1C=C(NCCNc2c3c(nc4cc(Cl)ccc24)CCCC3)C(=O)c2ccccc21
Outgoing: Toxic
